MEASURED_ON: T1, TcsH^2210-2618, His-tagged (Paeniclostridium sordellii, UniProt M9ZTT7 2210-2618)
T1 construct: not shown: His, C-terminal, kept
T1 sequence: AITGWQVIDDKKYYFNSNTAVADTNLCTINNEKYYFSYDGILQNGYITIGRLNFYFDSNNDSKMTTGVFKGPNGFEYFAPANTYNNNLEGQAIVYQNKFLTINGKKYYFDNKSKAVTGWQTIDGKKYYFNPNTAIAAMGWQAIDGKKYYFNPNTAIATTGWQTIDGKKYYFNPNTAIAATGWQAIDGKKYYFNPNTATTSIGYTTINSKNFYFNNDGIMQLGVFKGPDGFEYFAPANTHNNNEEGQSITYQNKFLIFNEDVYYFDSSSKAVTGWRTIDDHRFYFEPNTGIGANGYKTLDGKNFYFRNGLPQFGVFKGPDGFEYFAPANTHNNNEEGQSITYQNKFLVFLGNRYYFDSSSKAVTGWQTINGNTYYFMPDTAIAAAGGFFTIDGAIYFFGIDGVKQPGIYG
METHOD_SUMMARY: pull-down
SETUP_CONDITIONS: both partners purified

{"columns": ["BINDER", "binding result"],
 "data": [
  ["Fc-His-TMPRSS2^ECD [change] (Fc fusion, source: Expi293F, transfected, purified from the supernatant (TALON resin, SEC)) WKFMGSKCSNSGIECDSSGTCINPSNWCDGVSHCPGGEDENRCVRLYGPNFILQVYSSQRKSWHPVCQDDWNENYGRAACRDMGYKNNFYSSQGIVDDSGSTSFMKLNTSAGNVDIYKKLYHSDACSSKAVVSLRCIACGVNLNSSRQSQIVGGESALPGAWPWQVSLHVQNVHVCGGSIITPEWIVTAAHCVEKPLNNPWHWTAFAGILRQSFMFYGAGYQVEKVISHPNYDSKTKNNDIALMKLQKPLTFNDLVKPVCLPNPGMMLQPEQLCWISGWGATEEKGKTSEVLNAAKVLLIETQRCNSRYVYDNRITPAMICAGFLQGNVDSCQGDSGGPLVTSKNNIWWLIGDTSWGSGCAKAYRPGVYGNVMVFTDWIYRQMRADG", "binds"]
]}
